composite z-score listing for selected compounds.
System: wheat germ agglutinin (Triticum aestivum), Alexa647-labelled
procedureSummary: wheat germ agglutinin binders on compound microarrays, profiling panel, artefact control for SMM control-protein annotation, biochemical, small-molecule microarray, 635/667 nm fluorescence (AID 1140);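 further: score merges 667 nm feature emission with signal to noise over triplicate slides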
experimentalParameters: WGA-A647 binding, 635 nm fluorescence, higher = more signal

Worked cases, answers included:
[
  {
    "compound": "COc1ccc([Si](C)(C)[C@H]2[C@H](CC(=O)N3Cc4ccccc4C[C@H]3CO)O[C@@]3(C(=O)N(Cc4cccc(N5CCOC5=O)c4)c4ccccc43)[C@@H]2C)cc1",
    "assayedTarget": "wheat germ agglutinin (Triticum aestivum), Alexa647-labelled",
    "readoutType": "composite z-score",
    "val": 0.188
  },
  {
    "compound": "CC(C)[C@H]1NC(=O)[C@@]23C(=O)N[C@@H](Cc4ccccc4)C2[C@H](C)[C@@]2(C)O[C@H]2C3/C=C/C/C=C\\CNC(=O)[C@H](C)NC1=O (some centres undefined)",
    "assayedTarget": "wheat germ agglutinin (Triticum aestivum), Alexa647-labelled",
    "readoutType": "composite z-score",
    "val": -1.03
  },
  {
    "compound": "COCCOC(=O)N1C(=O)[C@@]2(c3cc(C#CCCO)ccc31)[C@H](c1ccc(OCCO)cc1)N1[C@H](c3ccccc3)[C@H](c3ccccc3)OC(=O)[C@H]1[C@@H]2C(=O)NC[C@H](O)c1ccccc1",
    "assayedTarget": "wheat germ agglutinin (Triticum aestivum), Alexa647-labelled",
    "readoutType": "composite z-score",
    "val": 0.728
  }
]

Inquiry: What value of measured composite z-score is listed for CC(=O)Nc1ccc([C@H]2[C@H](C)CC[C@H]3C(=O)N4[C@@H](CC[C@@H](C)[C@@H]4c4ccc(NC(C)=O)cc4)C(=O)N32)cc1 ?
Reply text: 0.994

Inquiry: What value of measured composite z-score is listed for CCOC(=O)C1=CC[C@@H](c2ccc(-c3ccc(OCc4ccccc4)cc3)c(OC)c2)N(S(=O)(=O)c2ccc(C)cc2)[C@H]1c1ccccc1 ?
Reply text: 1.05

Inquiry: What value of measured composite z-score is listed for CCCNC(=O)[C@@H]1c2ccccc2C(=O)N(C2CCCCC2)[C@H]1c1ccc(CO)cc1 ?
Reply text: 0.795

Inquiry: What value of measured composite z-score is listed for COc1ccc(-c2ccccc2[C@@H]2N[C@H](C(=O)O)CC[C@H]2C)cc1 ?
Reply text: -0.361

This collection of values is drawn from PubChem BioAssay.
